The values you see were collected from patent US20170296668A1.

# method notes: Solubility in Polysorbate 80 via thermal treatment process
# conditions: PS80, 1. Thermal Treatment method
For each record, write down the corresponding SOLUBLE CONC. RANGE (% wt/wt).

Challenge: So what does the record say about SOLUBLE CONC. RANGE (% wt/wt) for O=c1c(O)c(-c2ccc(O)c(O)c2)oc2cc(O)cc(O)c12 [Quercetin] ?
Response given: > 7%

Challenge: So what does the record say about SOLUBLE CONC. RANGE (% wt/wt) for Oc1ccc(C=Cc2cc(O)cc(O)c2)cc1 [Resveratrol] ?
Response given: > 8%

Challenge: So what does the record say about SOLUBLE CONC. RANGE (% wt/wt) for C[C@@H]1O[C@@H](OC[C@H]2O[C@@H](Oc3c(-c4ccc(O)c(O)c4)oc4cc(O)cc(O)c4c3=O)[C@H](O)[C@@H](O)[C@@H]2O)[C@H](O)[C@H](O)[C@H]1O [Rutin] ?
Response given: < 1%

Challenge: So what does the record say about SOLUBLE CONC. RANGE (% wt/wt) for O=c1cc(-c2ccc(O)c(O)c2)oc2cc(O)cc(O)c12 [Luteolin, 3′,4′,5,7-tetrahydroxyflavone] ?
Response given: > 8%

###

# method notes: Boiling of flavonoid in H2O & PS80 slurry
# Assay type: physicochemical
# conditions: water and polysorbate 80 slurry, aqueous with cosolvent or surfactant or cyclodextrin, thermodynamic from solid; 2. H2O & PS80 slurry boiled; read-out: SOLUBLE CONC. RANGE
For each record, write down the corresponding solubility.

Challenge: So what does the record say about solubility for C[C@@H]1O[C@@H](OC[C@H]2O[C@@H](Oc3c(-c4ccc(O)c(O)c4)oc4cc(O)cc(O)c4c3=O)[C@H](O)[C@@H](O)[C@@H]2O)[C@H](O)[C@H](O)[C@H]1O ?
Response given: < 15 mg/mL

Challenge: So what does the record say about solubility for O=c1cc(-c2ccc(O)c(O)c2)oc2cc(O)cc(O)c12 [Luteolin, 3′,4′,5,7-tetrahydroxyflavone] ?
Response given: ≤ 50 mg/mL

###

For each record, write down the corresponding solubility.
# method notes: Solubility in Polysorbate 80 via thermal treatment process
# conditions: polysorbate 80, organic solvent or mixture, thermodynamic from solid

Challenge: So what does the record say about solubility for O=c1c(O)c(-c2ccc(O)c(O)c2)oc2cc(O)cc(O)c12 ?
Response given: > 70 mg/mL

Challenge: So what does the record say about solubility for O=c1cc(-c2ccc(O)c(O)c2)oc2cc(O)cc(O)c12 [Luteolin, 3′,4′,5,7-tetrahydroxyflavone] ?
Response given: > 80 mg/mL

Challenge: So what does the record say about solubility for C[C@@H]1O[C@@H](OC[C@H]2O[C@@H](Oc3c(-c4ccc(O)c(O)c4)oc4cc(O)cc(O)c4c3=O)[C@H](O)[C@@H](O)[C@@H]2O)[C@H](O)[C@H](O)[C@H]1O ?
Response given: < 10 mg/mL

Challenge: So what does the record say about solubility for Oc1ccc(C=Cc2cc(O)cc(O)c2)cc1 ?
Response given: > 80 mg/mL
